- Condition Details: 293.15 K; 101.33 kPa; Liquid; Sing-around technique in a fixed-path interferometer
Would you mind telling me the reported speed of sound of each entry?
Kindly answer with a numeric value in m/s, unit omitted.

Req: Identify measured speed of sound corresponding to CC(C)(C)Cl [2-chloro-2-methylpropane]
Resp: 1004.1

Req: Identify measured speed of sound corresponding to CC(C)CCl [1-chloro-2-methylpropane]
Resp: 1099.6

Req: Identify measured speed of sound corresponding to CC(C)OC(C)C [diisopropyl ether]
Resp: 1020.6

Req: Identify measured speed of sound corresponding to CCC(C)Cl (stereo not given) [2-chlorobutane]
Resp: 1086.7

Req: Identify measured speed of sound corresponding to CCCCCl [1-chlorobutane]
Resp: 1138.8

----------
- Test Protocol: refractive index (Na D-line) (dimensionless)
- Condition Details: 293.15 K; 101.33 kPa; Liquid; Standard Abbe refractometry
Outcome Measure: refractive index
Lab note: record the figure alone, no unit after it.

Req: Identify measured refractive index corresponding to "CC(C)CCl"
Resp: 1.39802

Req: Identify measured refractive index corresponding to CCC(C)Cl (stereo not given)
Resp: 1.3968

Req: Identify measured refractive index corresponding to "CCCCCl"
Resp: 1.40212

Req: Identify measured refractive index corresponding to "CC(C)OC(C)C"
Resp: 1.36812

Req: Identify measured refractive index corresponding to "CC(C)(C)Cl"
Resp: 1.38522

----------
Would you mind telling me the reported refractive index of each entry?
- Test Protocol: refractive index (Na D-line) (dimensionless)
- Condition Details: 308.15 K; 101.33 kPa; Liquid; Standard Abbe refractometry
Lab note: record the figure alone, no unit after it.

Req: Identify measured refractive index corresponding to "CC(C)CCl"
Resp: 1.38963

Req: Identify measured refractive index corresponding to "CC(C)(C)Cl"
Resp: 1.37619

Req: Identify measured refractive index corresponding to "CC(C)OC(C)C"
Resp: 1.35956

Req: Identify measured refractive index corresponding to CCC(C)Cl (stereo not given)
Resp: 1.38844

Req: Identify measured refractive index corresponding to "CCCCCl"
Resp: 1.39395

----------
- Test Protocol: refractive index (Na D-line) (dimensionless)
- Condition Details: 313.15 K; 101.33 kPa; Liquid; Standard Abbe refractometry
Outcome Measure: refractive index
Lab note: record the figure alone, no unit after it.

Req: Identify measured refractive index corresponding to "CC(C)(C)Cl"
Resp: 1.37312

Req: Identify measured refractive index corresponding to "CC(C)CCl"
Resp: 1.38683

Req: Identify measured refractive index corresponding to "CCCCCl"
Resp: 1.39131

Req: Identify measured refractive index corresponding to "CC(C)OC(C)C"
Resp: 1.35667

Req: Identify measured refractive index corresponding to CCC(C)Cl (stereo not given)
Resp: 1.38562

----------
Would you mind telling me the reported speed of sound of each entry?
- Condition Details: 303.15 K; 101.33 kPa; Liquid; Sing-around technique in a fixed-path interferometer
Kindly answer with a numeric value in m/s, unit omitted.

Req: Identify measured speed of sound corresponding to CCC(C)Cl (stereo not given)
Resp: 1045.9

Req: Identify measured speed of sound corresponding to "CC(C)(C)Cl"
Resp: 961.51

Req: Identify measured speed of sound corresponding to "CC(C)OC(C)C"
Resp: 976.02

Req: Identify measured speed of sound corresponding to "CCCCCl"
Resp: 1097.6

Req: Identify measured speed of sound corresponding to "CC(C)CCl"
Resp: 1057.8
